Tested on: Recombinant Human FGFR1 alpha (IIIc) Fc Chimera Protein
Test: Binding affinity of enzymatically synthesized cyclic peptide to FGFR by ELISA
Details: luminescence signal at reaction concentration 10 nmol/L, SEQ ID NO: 39 standardized to 1, enzyme synthesis product
Bridge positions count the residues as written; N and C are the ends. Ends that are not written are not given here. COCH2 = acetyl group that carries the bridge
Metric name: Evaluation result of binding affinity to FGFR

Substance: 330 (HCSYERLVFHGHIAPFWVK(COCH2)V; thioether 2-19 (inferred)) [compound 330]
Value reported: A (0.7 or more)
//
Substance: 127 (HCSYWRLQFHGHEAPFRVK(COCH2)V; thioether 2-19 (inferred)) [compound 127]
Value reported: A (0.7 or more)

----------
Tested on: Recombinant Human FGFR1 alpha (IIIc) Fc Chimera Protein
Assay: Binding affinity of enzymatically synthesized cyclic peptide to FGFR by ELISA
Details: luminescence signal at reaction concentration 10 nmol/L, SEQ ID NO: 39 standardized to 1, enzyme synthesis product
Bridge positions count the residues as written; N and C are the ends. Ends that are not written are not given here. COCH2 = acetyl group that carries the bridge
Metric name: Evaluation result of binding affinity to FGFR

Substance: 152 (HCSYERLNFHGHEAPFRVK(COCH2)V; thioether 2-19 (inferred)) [compound 152]
Value reported: A (0.7 or more)
--
Substance: 331 (HCSYERLIFHGHLAPFWVK(COCH2)V; thioether 2-19 (inferred)) [compound 331]
Value reported: A (0.7 or more)

----------
Tested on: Recombinant Human FGFR1 alpha (IIIc) Fc Chimera Protein
Experiment: Binding affinity of enzymatically synthesized cyclic peptide to FGFR by ELISA
Details: luminescence signal at reaction concentration 10 nmol/L, SEQ ID NO: 39 standardized to 1, enzyme synthesis product
Bridge positions count the residues as written; N and C are the ends. Ends that are not written are not given here. COCH2 = acetyl group that carries the bridge
Metric name: Evaluation result of binding affinity to FGFR

Substance: 190 (HCSYERLQFHGHHAPFRVK(COCH2)V; thioether 2-19 via Ac) [compound 190]
Value reported: A (0.7 or more)
//
Substance: 327 (HCSYERLIFHGHEAPFWVK(COCH2)V; thioether 2-19 (inferred)) [compound 327]
Value reported: A (0.7 or more)
//
Substance: 42 (RCWDQLTFYGHQAPFYVK(COCH2)G; thioether 2-18 (inferred)) [compound 42]
Value reported: A (0.7 or more)
//
Substance: 193 (HCSYERLQFHGHEAPFVVK(COCH2)V; thioether 2-19 via Ac) [compound 193]
Value reported: A (0.7 or more)

----------
System: Recombinant Human FGFR1 alpha (IIIc) Fc Chimera Protein
Assay: Binding affinity of enzymatically synthesized cyclic peptide to FGFR by ELISA
Conditions: luminescence signal at reaction concentration 10 nmol/L, SEQ ID NO: 39 standardized to 1, enzyme synthesis product
Description: The binding affinity of the cyclic peptide to FGFR was evaluated using an ELISA method. The binding affinity of the enzymatically synthesized cyclic peptide to FGFR was measured by evaluating the amount of the cyclic peptide bound to FGFR by ELISA. […]
Bridge positions count the residues as written; N and C are the ends. Ends that are not written are not given here. COCH2 = acetyl group that carries the bridge
Metric name: Evaluation result of binding affinity to FGFR

Substance: 240 (HK(COCH2)TWERLIFLGHIAPFHVCR; thioether 2-19 (inferred)) [compound 240]
Value reported: A (0.7 or more)
--
Substance: 65 (HCSYERLQFHGHEAPFRAK(COCH2)V; thioether 2-19 (inferred)) [compound 65]
Value reported: A (0.7 or more)
